- Target of assay: K63-Ub4 (Homo sapiens, UniProt P0CG47, K63R)
- Construct: Ub and K48- and K63-linked diUb and tetraUb were made as described; made in house
- Protocol notes: Fluorescence anisotropy binding of fluorescent tUIM peptides to K63-Ub4
- Reported conditions: fluorescence anisotropy, single-site fit, 25° C., pH 7.4
Where no end group is shown, it is not given here. The star is where a group is joined. Fluorescein(5-Mal) = O=C1OC2(c3ccc(O)cc3Oc3cc(O)ccc32)c2ccc(N3C(=O)CC(*)C3=O)cc21
Test readout: Kd (µM)

> print(dat)
                                  substance  assay.value
1  PSSHHHHHHSSGLVPRGSHMTEEEQFALALKMSEQEAAAEEEEELLRKAIAESLNSC(Fluorescein(5-Mal))RPS [Rap80 2A linker]           19
2  PSSHHHHHHSSGLVPRGSHMTEEEQFALALKMSEQEADMEEEEELLRKAIAESLNSC(Fluorescein(5-Mal))RPS [Rap80 ataxin linker]           20

* * *

- Target of assay: K48-Ub2 (Homo sapiens, UniProt P0CG47, K48R)
- Construct: Ub and K48- and K63-linked diUb and tetraUb were made as described; made in house
- Protocol notes: Fluorescence anisotropy binding of fluorescent tUIM peptides to K48-Ub2
- Reported conditions: single-site fit, 25° C., pH 7.4
pKd: −log10 of the molar value. Where no end group is shown, it is not given here. The star is where a group is joined. Fluorescein(5-Mal) = O=C1OC2(c3ccc(O)cc3Oc3cc(O)ccc32)c2ccc(N3C(=O)CC(*)C3=O)cc21
Test readout: pKd

> print(dat)
                                  substance  test.readout  assay.value
1  PSSHHHHHHSSGLVPRGSHMTEEEQFALALKMSEQEADMEEEEELLRKAIAESLNSC(Fluorescein(5-Mal))RPS [Rap80 ataxin linker]           pKd         3.84
2  PSSHHHHHHSSGLVPRGSHMTEEEQFALALKMSEQEAREVNSQEEEEEELLNSC(Fluorescein(5-Mal))RPS [UIM1]           pKd         3.55
3  PSSHHHHHHSSGLVPRGSHMTEEEQEQEAREVNSQEEEEEELLRKAIAESLNSC(Fluorescein(5-Mal))RPS [UIM2]           pKd         3.70
4  PSSHHHHHHSSGLVPRGSHMTEEEQFALALKMSEQEAAAEEEEELLRKAIAESLNSC(Fluorescein(5-Mal))RPS [Rap80 2A linker]           pKd         3.74

* * *

- Target of assay: K63-Ub2 (Homo sapiens, UniProt P0CG47, K63R)
- Construct: Ub and K48- and K63-linked diUb and tetraUb were made as described; made in house
- Protocol notes: Fluorescence anisotropy binding of fluorescent tUIM peptides to K63-Ub2
- Reported conditions: fluorescence anisotropy; text of Example 2
pKd: −log10 of the molar value. Where no end group is shown, it is not given here. The star is where a group is joined. Fluorescein(5-Mal) = O=C1OC2(c3ccc(O)cc3Oc3cc(O)ccc32)c2ccc(N3C(=O)CC(*)C3=O)cc21
Property: pKd; scope: individual substances
Test readout: pKd

> print(dat)
                                  substance  test.readout  assay.value
1  PSSHHHHHHSSGLVPRGSHMTEEEQEQEAREVNSQEEEEEELLRKAIAESLNSC(Fluorescein(5-Mal))RPS [UIM2]           pKd         3.33
2  PSSHHHHHHSSGLVPRGSHMTEEEQFALALKMSEQEAREVNSQEEEEEELLNSC(Fluorescein(5-Mal))RPS [UIM1]           pKd         3.64
